Where do the numbers come from? From ChEMBL document CHEMBL1140056.

Listing: GI50 of selected compounds
assay notes: Antitumor activity against human NCI60 cells after 48 hrs by SRB assay
Type: functional
details: NCI60, 48 h
Unit nM implied. Number only.

In one line, give reported GI50 of the entry `c1ccc2c(CNCCCCCCCCCCCCNCc3cccc4ccccc34)cccc2c1` .
2190

Provide only the value of recorded GI50 for `COc1ccc2cc(CN3CCC(C4CCN(Cc5ccc6cc(OC)ccc6c5)CC4)CC3)ccc2c1`
2950

Give me measured GI50, please, for this compound: `c1ccc2c(CNCCCCCCCCNCc3cccc4ccccc34)cccc2c1`
2400

State its GI50: `c1ccc2cc(CN3CCC(C4CCN(Cc5ccc6ccccc6c5)CC4)CC3)ccc2c1`
2880

More entries:
Give me measured GI50, please, for this compound: `O=C1c2c(O)ccc(O)c2C(=O)c2c(NCCNCCO)ccc(NCCNCCO)c21`
47.9

###

assay notes: Antitumor activity against human NCI60 cells after 48 hrs by SRB assay
Assay type: functional
details: NCI60, 48 h
experimental readout: GI50 (nM)
Only the number, expressed in nM, is required.

Solved cases (3 shown):
Look up and state reported GI50 for `COc1ccc2cc(CNCCCCCCCCCCCCNCc3ccc4cc(OC)ccc4c3)ccc2c1`
15500

# return recorded GI50 for entry `COc1ccc2cc(CNCCOCCOCCNCc3ccc4cc(OC)ccc4c3)ccc2c1`
724

Consider the compound `c1ccc2cc(CNCCOCCOCCNCc3ccc4ccccc4c3)ccc2c1` and give its recorded GI50.
1700

---
Tell me measured GI50 for `c1ccc2c(CNCCCN3CCN(CCCNCc4cccc5ccccc45)CC3)cccc2c1` please.
6610

Assign GI50 to the following record: `COc1cc(NS(C)(=O)=O)ccc1Nc1c2ccccc2nc2ccccc12`
229

###

assay notes: Antitumor activity against human NCI60 cells after 48 hrs by SRB assay
Format: functional
details: NCI60, 48 h
GI50 less than 1000 nM is Met; GI50 greater than or equal to 1000 nM is Not met.

Worked cases, answers included:
Just wondering, is GI50 of `COc1ccc2cc(CNCCCN3CCN(CCCNCc4ccc5cc(OC)ccc5c4)CC3)ccc2c1` below 1000 nM?
Not met

Does the reported GI50 of `COc1ccc2cc(CNCCCCCCCCNCc3ccc4cc(OC)ccc4c3)ccc2c1` stay below 1000 nM?
Not met

In plain terms, does `c1ccc2c(CN3CCC(C4CCN(Cc5cccc6ccccc56)CC4)CC3)cccc2c1` come in under 1000 nM for GI50?
Not met

Lab log: compare recorded GI50 with 1000 nM; is it strictly lower for `COc1ccc2cc(CNCCCCCCNCc3ccc4cc(OC)ccc4c3)ccc2c1` ?
Met

Next:
Hi there! Is GI50 for `c1ccc2c(CNCCCCCCNCc3cccc4ccccc34)cccc2c1` below 1000 nM, do you know?
Not met
